Entry source: patent US9040527B2

Entries and their IC50 values follow.
# Assayed Target: UniProt P53350
# Protocol Text: Cellular PLK1 assay in K562 cells overexpressing CDC25C
# Assay type: cell-based
# Design: endogenous in cells; host or cells: K562 (human chronic myelogenous leukemia) overexpressing CDC25C, nocodazole-arrested
# Test Conditions: nocodazole arrested, cdc25c p-Ser198 readout

// known answers, use as guide
* CN1CCN(c2cccc(Nc3ncc(F)c(Nc4ccc5c(n4)NC(=O)C(C)(C)O5)n3)c2)CC1 [compound 161] | 0.5 to 5 µM
* COc1cnc(Nc2cccc(N3CCN(C)CC3)c2)nc1Nc1ccc2c(n1)NC(=O)CO2 [compound 56] | ≥ 10 µM
* CCC(CC)N1C(=O)COc2ccc(Nc3nc(Nc4cccc(N5CCN(C)CC5)c4)ncc3F)nc21 [compound 134] | < 0.5 µM

For Cc1cc(Nc2ncc(F)c(Nc3ccc4c(n3)N(CC3CCC3)C(=O)CO4)n2)ccc1N1CCN(C)CC1 [compound 112] , write its IC50.
≥ 10 µM

For Cc1cc(Nc2ncc(C)c(Nc3ccc4c(n3)N(C)C(=O)CO4)n2)ccc1N1CCN(C)CC1 [compound 95] , write its IC50.
≥ 10 µM

For CN1CCN(c2cccc(Nc3ncc(F)c(Nc4ccc5c(n4)N(Cc4ccccc4)C(=O)CO5)n3)c2)CC1 [compound 120] , write its IC50.
0.5 to 5 µM

For CCCN1C(=O)COc2ccc(Nc3nc(Nc4ccc(N5CC6CC5CN6C(C)=O)c(C)c4)ncc3C)nc21 (stereo not drawn) [compound 38] , write its IC50.
0.5 to 5 µM

For Cc1cc(Nc2ncc(C)c(Nc3ccc4c(n3)N(CC3CCCCC3)C(=O)CO4)n2)ccc1N1CCN(C)CC1 [compound 119] , write its IC50.
≥ 10 µM

For Cc1cnc(Nc2ccc(N3CCN(C)CC3)nc2)nc1Nc1ccc2c(c1)N(C)C(=O)C(C)(C)O2 [compound 202] , write its IC50.
≥ 10 µM

====

Entries and their IC50 values follow.
# Assayed Target: PLK1 (Homo sapiens, UniProt P53350)
# Sequence (P53350 whole entry): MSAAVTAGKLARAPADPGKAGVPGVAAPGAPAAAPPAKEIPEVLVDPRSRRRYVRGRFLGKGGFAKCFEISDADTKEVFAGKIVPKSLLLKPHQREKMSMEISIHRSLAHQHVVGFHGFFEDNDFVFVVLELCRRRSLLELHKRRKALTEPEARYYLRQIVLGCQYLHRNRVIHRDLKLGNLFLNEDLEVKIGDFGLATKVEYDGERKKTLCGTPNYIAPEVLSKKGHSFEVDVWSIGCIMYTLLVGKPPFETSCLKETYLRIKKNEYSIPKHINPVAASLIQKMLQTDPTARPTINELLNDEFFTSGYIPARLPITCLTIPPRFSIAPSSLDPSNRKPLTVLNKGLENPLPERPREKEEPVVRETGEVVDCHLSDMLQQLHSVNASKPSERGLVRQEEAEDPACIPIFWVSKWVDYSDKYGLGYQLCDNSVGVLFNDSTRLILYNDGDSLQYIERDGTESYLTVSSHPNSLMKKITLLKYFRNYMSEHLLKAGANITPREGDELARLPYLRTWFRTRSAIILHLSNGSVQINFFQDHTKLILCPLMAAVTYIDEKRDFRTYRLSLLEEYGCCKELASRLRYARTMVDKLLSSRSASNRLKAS
# Protocol Text: In vitro PLK1 ELISA assay (biochemical)
# Set-up: purchased Cell Signalling 7728
# Test Conditions: ELISA, CHK2-derived peptide substrate; read-out: PLK1 IC50 (μM) biochemical assay

- CC(C)c1cc(Nc2ncc(F)c(Nc3ccc4c(n3)NCCO4)n2)ccc1N1CC2CC1CN2C (centres unmarked): ≥ 10 µM
- Cc1cnc(Nc2cccc(N3CCN(C)CC3)c2)nc1Nc1ccc2c(n1)N(Cc1ccccc1)C(=O)CO2: < 0.5 µM
- Cc1cnc(Nc2cccc(N3CCN(C)CC3)c2)nc1Nc1ccc2c(n1)N(C1CCCC1)C(=O)CO2: 0.5 to 5 µM
- CN1CCN(c2cccc(Nc3ncc(F)c(Nc4ccc5c(n4)NCCO5)n3)c2)CC1: < 0.5 µM
- CN1CCN(c2cccc(Nc3nccc(Nc4ccc5c(n4)NCCO5)n3)c2)CC1: < 0.5 µM

For `C#CCN1C(=O)COc2ccc(Nc3nc(Nc4cccc(N5CCN(C)CC5)c4)ncc3F)nc21` , write its IC50.
< 0.5 µM

For `CN1CCN(c2cccc(Nc3ncc(F)c(Nc4ccc5c(n4)NC(=O)CO5)n3)c2)CC1` , write its IC50.
< 0.5 µM

For `CCCN1C(=O)COc2ccc(Nc3nc(Nc4ccc(N5CCN(S(C)(=O)=O)CC5)c(C(F)(F)F)c4)ncc3F)nc21` , write its IC50.
≥ 10 µM
